Some molecules, each annotated with its measured melting point.

Some molecules with known melting point results, for comparison:
compound: Cc1ccc(Cc2ccccc2O[C@@H]2S[C@H](CO)[C@@H](O)[C@H](O)[C@H]2O)cc1
melting point: 184 to 186 °C
//
compound: CCc1ccc(Cc2cc(CO)ccc2O[C@@H]2S[C@H](CO)[C@@H](O)[C@H](O)[C@H]2O)cc1
melting point: 202.5 to 205 °C
//
compound: CCc1ccc(Cc2cccc(O[C@@H]3S[C@H](CO)[C@@H](O)[C@H](O)[C@H]3O)c2)cc1
melting point: 132 to 134 °C
//
compound: OC[C@H]1S[C@@H](Oc2ccc(Cl)cc2Cc2ccccc2Cc2ccccc2)[C@H](O)[C@@H](O)[C@@H]1O
melting point: 150.5 to 151.5 °C
//
compound: Nc1ccc(Cc2cc(Cl)ccc2O[C@@H]2S[C@H](CO)[C@@H](O)[C@H](O)[C@H]2O)cc1
melting point: 206 to 208 °C

Using the record for O=C(Nc1ccccc1)c1cc(Cl)ccc1O[C@@H]1S[C@H](CO)[C@@H](O)[C@H](O)[C@H]1O , report its melting point.
96 to 105 °C

Please do the same for CCc1ccc(Cc2ccc(COC(C)=O)cc2O[C@@H]2S[C@H](CO)[C@@H](O)[C@H](O)[C@H]2O)cc1 as well.
158 to 160 °C

Please do the same for CCc1ccc(Cc2ccccc2O[C@@H]2S[C@H](COC(=O)OC)[C@@H](O)[C@H](O)[C@H]2O)cc1 as well.
102 to 104.5 °C

Please do the same for OC[C@H]1S[C@@H](Oc2ccc(Cl)cc2Cc2cccc(Oc3ccccc3)c2)[C@H](O)[C@@H](O)[C@@H]1O as well.
124.5 to 127 °C

Please do the same for CCc1ccc(Cc2cc(Cl)cc(Cl)c2O[C@@H]2S[C@H](CO)[C@@H](O)[C@H](O)[C@H]2O)cc1 as well.
72 to 80 °C

Please do the same for CC(C)(C)c1ccc(Cc2cc(Cl)ccc2O[C@@H]2S[C@H](CO)[C@@H](O)[C@H](O)[C@H]2O)cc1 as well.
79 to 82.5 °C

Please do the same for CCc1ccc(Cc2ccc(F)cc2O[C@@H]2S[C@H](CO)[C@@H](O)[C@H](O)[C@H]2O)cc1 as well.
156 to 157 °C

Please do the same for OC[C@H]1S[C@@H](Oc2ccccc2Cc2ccc(C3CC3)cc2)[C@H](O)[C@@H](O)[C@@H]1O as well.
148 to 148.5 °C

Please do the same for CC(C)c1ccc(Cc2cc(Cl)ccc2O[C@@H]2S[C@H](CO)[C@@H](O)[C@H](O)[C@H]2O)cc1 as well.
146 to 148.5 °C

* * *

experimental_endpoint: melting point

Some compounds with known melting point results, for comparison:
compound: CN(C)C(=O)c1ccc(Cc2ccccc2O[C@@H]2S[C@H](CO)[C@@H](O)[C@H](O)[C@H]2O)cc1 [Compound 86]
observed_measurement: 193.5 to 194 °C

compound: NC(=O)c1ccc(Cc2ccccc2O[C@@H]2S[C@H](CO)[C@@H](O)[C@H](O)[C@H]2O)cc1 [Compound 85]
observed_measurement: 215.5 to 216 °C

--- query ---
Using the record for OC[C@H]1S[C@@H](Oc2ccc(Cl)cc2Cc2cc(F)cc(C(F)(F)F)c2)[C@H](O)[C@@H](O)[C@@H]1O [Compound 76] , report its melting point.
126 to 129 °C

* * *

experimental_endpoint: melting point

compound: Cc1ccc(Cc2ccccc2O[C@@H]2S[C@H](CO)[C@@H](O)[C@H](O)[C@H]2O)nc1 [Compound 36]
melting point: 177 to 180 °C
--
compound: Cc1ccccc1Cc1cc(Cl)ccc1O[C@@H]1S[C@H](CO)[C@@H](O)[C@H](O)[C@H]1O [Compound 82]
melting point: 147 to 149 °C
--
compound: CCCCc1ccc(Cc2cc(Cl)ccc2O[C@@H]2S[C@H](CO)[C@@H](O)[C@H](O)[C@H]2O)cc1 [Compound 46]
melting point: 165 to 168 °C

--- query ---
Using the record for OC[C@H]1S[C@@H](Oc2ccc(Cl)cc2Cc2c(F)cccc2Cl)[C@H](O)[C@@H](O)[C@@H]1O [Compound 59] , report its melting point.
183.5 to 185 °C

* * *

experimental_endpoint: melting point

compound: CCc1ccc(Cc2cc(C)ccc2O[C@@H]2S[C@H](CO)[C@@H](O)[C@H](O)[C@H]2O)cc1
melting point: 154 to 156 °C
//
compound: Cc1ccc(Sc2ccccc2O[C@@H]2S[C@H](CO)[C@@H](O)[C@H](O)[C@H]2O)cc1
melting point: 140 to 142 °C
//
compound: OC[C@H]1S[C@@H](Oc2ccccc2Cc2ccccc2)[C@H](O)[C@@H](O)[C@@H]1O
melting point: 171 to 174 °C
//
compound: OC[C@H]1S[C@@H](Oc2ccccc2Cc2ccc(F)cc2)[C@H](O)[C@@H](O)[C@@H]1O
melting point: 157 to 158.5 °C
//
compound: COc1ccc(CNC(=O)c2c(O)cccc2O[C@@H]2S[C@H](CO)[C@@H](O)[C@H](O)[C@H]2O)cc1
melting point: 183 to 185 °C

--- query ---
Using the record for CCOc1ccccc1Cc1cc(Cl)ccc1O[C@@H]1S[C@H](CO)[C@@H](O)[C@H](O)[C@H]1O , report its melting point.
196.5 to 198.5 °C

* * *

Some compounds, each annotated with its measured melting point.

compound: CCSc1ccc(Cc2ccccc2O[C@@H]2S[C@H](CO)[C@@H](O)[C@H](O)[C@H]2O)cc1 [Compound 48]
melting point: 174 to 176.5 °C

Using the record for OC[C@H]1S[C@@H](Oc2ccc(Cl)cc2Cc2c(F)c(F)cc(F)c2F)[C@H](O)[C@@H](O)[C@@H]1O [Compound 66] , report its melting point.
204 to 211 °C

Please do the same for CCc1ccc(Cc2ccc(O[C@@H]3S[C@H](CO)[C@@H](O)[C@H](O)[C@H]3O)cc2)cc1 [Compound 50] as well.
137 to 138.5 °C

Please do the same for CCc1cccc(Cc2ccccc2O[C@@H]2S[C@H](CO)[C@@H](O)[C@H](O)[C@H]2O)c1 [Compound 57] as well.
144 to 145 °C

Please do the same for OC[C@H]1S[C@@H](Nc2ccccc2Cc2ccccc2)[C@H](O)[C@@H](O)[C@@H]1O [Compound 35] as well.
144 to 151 °C

Please do the same for OC[C@H]1S[C@@H](Oc2ccccc2Cc2ccncc2)[C@H](O)[C@@H](O)[C@@H]1O [Compound 24] as well.
179 to 180 °C

Please do the same for Cn1cc(Cc2ccccc2O[C@@H]2S[C@H](CO)[C@@H](O)[C@H](O)[C@H]2O)cn1 [Compound 55] as well.
148.5 to 149.5 °C

* * *

Some molecules, each annotated with its measured melting point.

Some molecules with known melting point results, for comparison:
compound: OC[C@H]1S[C@@H](Oc2c(Cc3c(F)cccc3Cl)cc(Cl)cc2Cc2c(F)cccc2Cl)[C@H](O)[C@@H](O)[C@@H]1O
melting point: 112 to 118 °C
//
compound: CCc1ccccc1Cc1ccccc1O[C@@H]1S[C@H](CO)[C@@H](O)[C@H](O)[C@H]1O
melting point: 96 to 101 °C

Using the record for CS(=O)(=O)Nc1ccc(Cc2cc(Cl)ccc2O[C@@H]2S[C@H](CO)[C@@H](O)[C@H](O)[C@H]2O)cc1 , report its melting point.
151 to 153 °C

Please do the same for OC[C@H]1S[C@@H](Oc2ccc(Cl)cc2Cc2ccccc2F)[C@H](O)[C@@H](O)[C@@H]1O as well.
170 to 173 °C

Please do the same for CN(C)c1ccc(Cc2cc(Cl)ccc2O[C@@H]2S[C@H](CO)[C@@H](O)[C@H](O)[C@H]2O)cc1 as well.
183 to 184 °C

Please do the same for COC(=O)c1ccc(Cc2cc(Cl)ccc2O[C@@H]2S[C@H](CO)[C@@H](O)[C@H](O)[C@H]2O)cc1 as well.
74 to 76 °C

Please do the same for CCc1ccc(Cc2ccc(OCOC)cc2O[C@@H]2S[C@H](CO)[C@@H](O)[C@H](O)[C@H]2O)cc1 as well.
175.5 to 180 °C

* * *

experimental_endpoint: melting point

Some compounds with known melting point results, for comparison:
compound: OC[C@H]1S[C@@H](Oc2ccc(Cl)cc2Cc2cccc(F)c2)[C@H](O)[C@@H](O)[C@@H]1O [Compound 61]
observed_measurement: 182 to 183 °C
//
compound: CCc1ccc(Cc2cc(Cl)ccc2O[C@@H]2S[C@H](CO)[C@@H](O)[C@H](O)[C@H]2O)cc1 [Compound 2]
observed_measurement: 173.5 to 177.5 °C
//
compound: CCn1cc(Cc2ccccc2O[C@@H]2S[C@H](CO)[C@@H](O)[C@H](O)[C@H]2O)cn1 [Compound 54]
observed_measurement: 175 to 177.5 °C
//
compound: OC[C@H]1S[C@@H](Oc2ccccc2OCc2ccccc2)[C@H](O)[C@@H](O)[C@@H]1O [Compound 25]
observed_measurement: 148 to 150 °C

Using the record for CCc1ccc(Cc2cc(C(=O)O)ccc2O[C@@H]2S[C@H](CO)[C@@H](O)[C@H](O)[C@H]2O)cc1 [Compound 16] , report its melting point.
219 to 220.5 °C

Please do the same for OC[C@H]1S[C@@H](Oc2ccc(Cl)cc2Cc2ccccc2CCc2ccccc2)[C@H](O)[C@@H](O)[C@@H]1O [Compound 78] as well.
128 to 130 °C

Please do the same for OC[C@H]1S[C@@H](Oc2ccccc2Cc2ccc(N3CCCCC3)cc2)[C@H](O)[C@@H](O)[C@@H]1O [Compound 74] as well.
156.5 to 160 °C
